Reported Growth Rate values for a set of compounds
Test system: U2OS
assay-remarks: Incucyte cell viability with U2OS; note: filed as whole numbers so only -1 and 0 and 1 occur
Format: toxicity, cell-based
study-conditions: human, 6 h, 10 µM, compound concentration 10 uM, replicate number 1, timepoint 6 hours
Output: the number by itself.

Examples with their reported Growth Rate follow.
>  <compound>
Cc1c(P(=S)(c2ccccc2)c2ccccc2)n2ccccc2[n+]1C/C=C/c1ccccc1.[Br-]

>  <Growth Rate>
0

$$$$
>  <compound>
CCOC(=O)CCNc1cc(N2CCc3ccccc3CC2)nc(-c2ccccn2)n1

>  <Growth Rate>
0

$$$$

Ask | Quick one: Growth Rate for C[C@@H](N)Cc1c[nH]cn1.Cl.Cl ?
Reply | 0

Ask | Any idea what Growth Rate was measured for CC(C)NCC(O)COc1cccc2ccccc12.Cl (stereo not drawn) [PROPRANOLOL HYDROCHLORIDE] ?
Reply | 0

Ask | Quick check: Growth Rate of CCCCCNC(=N)N/N=C/c1c[nH]c2ccc(OC)cc12.O=C(O)/C=C\C(=O)O [TEGASEROD MALEATE] ?
Reply | 0

Ask | Please give the measured Growth Rate for this compound: CC[C@H](Nc1ncnc2[nH]cnc12)c1nc2cccc(F)c2c(=O)n1-c1ccccc1
Reply | 0

====

In this section we review reported Population Normal (%) values for a set of compounds.
Tested on: HEK-293T
assay-remarks: Multiplex assay against HEK293T
Type: toxicity, cell-based
study-conditions: human, 48 h, 1 µM, compound concentration 1 uM, replicate 1
The reply should contain only the number, in %.

>  <compound>
CC(C)[C@H](CO)Nc1nc(Nc2cccc(Cl)c2)c2ncn(C(C)C)c2n1

>  <unit>
%

>  <value>
86

$$$$

Ask | Please give the measured Population Normal (%) for this compound: C[C@@H](Oc1cc(-n2cnc3ccc(CN4CCN(C)CC4)cc32)sc1C(N)=O)c1ccccc1C(F)(F)F
Reply | 77

Ask | Return reported Population Normal (%); argument: N#Cc1cccc(C(=O)Nc2cc(-c3ccccc3)nn2-c2ccccc2)c1
Reply | 84

Ask | Which Population Normal (%) is listed for CCCc1cc(C)[nH]c(=O)c1CNC(=O)c1cc(-c2ccc(N3CCN(C(C)C)CC3)nc2)cc2c1cnn2C(C)C ?
Reply | 90

Ask | Field request: Population Normal (%) | item: CN(c1cc(C(F)(F)F)nc(OCCC(=O)O)n1)c1cccc2c1CCC2
Reply | 83

Ask | What Population Normal (%) value was documented for this compound, CC(C)C[C@H](NC(=O)[C@H](Cc1ccccc1)NC(=O)CNC(=O)CNC(=O)[C@@H](N)Cc1ccc(O)cc1)C(=O)O ?
Reply | 74

Ask | What does the record list as Population Normal (%) for CCCCN(CC)c1nc(C)nc2c1c(C)cn2-c1c(C)cc(C)cc1C.Cl ?
Reply | 87

Ask | Value lookup for Population Normal (%); key = CCCCCNC(=N)N/N=C/c1c[nH]c2ccc(OC)cc12.O=C(O)/C=C\C(=O)O [TEGASEROD MALEATE]
Reply | 91

Ask | Item under review: Cl.NC[C@@H]1O[C@H](C23CC4CC(CC(C4)C2)C3)Cc2c1ccc(O)c2O . Reported Population Normal (%)?
Reply | 93

====

This section presents compounds with their documented Population Hoechst High Intensity Objects (%) values.
Tested on: U2OS
assay-remarks: Multiplex assay against U2OS
Assay type: toxicity, cell-based
study-conditions: human, 12 h, 10 µM, compound concentration 10 uM, replicate 1
// units = %; emit number, no label

Field: example entries. Status: answers known.
>  <chemical-smiles>
CC[C@H](Nc1ncnc2[nH]cnc12)c1nc2cccc(F)c2c(=O)n1-c1ccccc1

>  <system-under-test>
U2OS

>  <unit>
%

>  <value>
11

$$$$
>  <chemical-smiles>
CCCCN(CC)c1nc(C)nc2c1c(C)cn2-c1c(C)cc(C)cc1C.Cl

>  <system-under-test>
U2OS

>  <unit>
%

>  <value>
7

$$$$
>  <chemical-smiles>
CC(C)[C@H](CO)Nc1nc(Nc2cccc(Cl)c2)c2ncn(C(C)C)c2n1

>  <system-under-test>
U2OS

>  <unit>
%

>  <value>
13

$$$$

Ask | Population Hoechst High Intensity Objects (%) of CC[C@@H]1C(=O)N(C)c2cnc(Nc3ccc(C(=O)NC4CCN(C)CC4)cc3OC)nc2N1C1CCCC1 on U2OS?
Reply | 2
